Tested on: KB-3-1
Assay: Cytotoxic Profiling of Annotated Libraries Using Quantitative High-Throughput Screening (AID 1296008); note: potency is the fitted concentration of half-maximal effect; nearly all actives have a fitted effect of over 60% in size
Settings: Five cell lines viability, CellTiter-Glo ATP luminescence, 48-72 h
Inconclusive results are not listed. Activity calls are given as the source filed them. Calls come from the whole dose curve; as a rule, active = well fitted inhibition curve with a large enough effect; inconclusive = small, poorly fitted or top-dose-only effect; inactive = flat fitted curve, though single readings scatter.

| molecule | Potency |
| --- | --- |
| CC(C)C[C@H](NC(=O)CNC(=O)c1cc(Cl)ccc1Cl)B1OC(=O)CC(CC(=O)O)(C(=O)O)O1 (stereo partly specified) | 1050 nM (active) |
| C=CC(=O)Nc1ccc2ncnc(Nc3ccc(OCc4cccc(F)c4)c(Cl)c3)c2c1 | 9350 nM (active) |
| C[C@H](NCc1ccc2c(c1)nc(NC(=O)c1ccc(-c3cn[nH]c3)s1)n2CCc1ccccc1)C(C)(C)C | 1050 nM (active) |
| O=C(C=Cc1ccc(CN(CCO)CCc2c[nH]c3ccccc23)cc1)NO | 264 nM (active) |
| CN[C@@H]1C[C@H]2O[C@@](C)([C@H]1OC)n1c3ccccc3c3c4c(c5c6ccccc6n2c5c31)C(=O)N[C@H]4O | 2640 nM (active) |
| O=C(Nc1cccc(Nc2ncc(Br)c(NCCc3cnc[nH]3)n2)c1)N1CCCC1 | 1320 nM (active) |

----------
Test: qHTS profiling of the MIPE4 collection as inhibitors of Plasmodium falciparum (3D7) proliferation (AID 743344);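 note: scaled between DMSO vehicle wells and 0.29 µM artemisinin as full inhibition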
Details: P. falciparum 3D7 in erythrocytes, SYBR Green DNA fluorescence, 72 h; at 28.5 µM (top of the series) unless noted
parameter: parasite growth, % of DMSO control

| compound | testResult |
| --- | --- |
| CC(C)(O)Cn1c(NC(=O)c2ccc(-c3cn[nH]c3)s2)nc2cc(CN3CCOCC3)ccc21 | 6.03% |
| N[C@H]1CN(c2c(F)cc3c(=O)c(C(=O)O)cn(C4C[C@@H]4F)c3c2Cl)CC12CC2 (stereo partly specified) | 20.3% |
| COc1cc2c(Nc3ccc(Cl)c(Cl)c3F)ncnc2cc1OCC1C[C@@H]2CN(C)C[C@H]2C1 | 6.7% |
| CC(=O)O[C@H]1C[C@@H]2CC[C@H]3[C@H]4C[C@H]([N+]5(C)CCCCC5)[C@@H](OC(C)=O)[C@@]4(C)CC[C@@H]3[C@@]2(C)C[C@H]1N1CCCCC1 | 40.5% |
| CC(=O)OCC(=O)[C@@]12N=C(C)O[C@H]1C[C@H]1[C@@H]3CCC4=CC(=O)C=C[C@]4(C)[C@@H]3[C@@H](O)C[C@@]12C | 89.5% |
| CCN(CC)CCNC(=O)c1c(C)[nH]c(C=C2C(=O)Nc3ccc(F)cc32)c1C | 4.82% [at 57.5 µM] |
| CCN(CC)CCCCNc1ncc2c(n1)N(C)C(=O)N(c1c(Cl)c(OC)cc(OC)c1Cl)C2 | 25.2% |
| COC(=O)C=CC(=O)OC | 76.2% |
| CCCCCCCN(CC)CCCC(O)c1ccc(NS(C)(=O)=O)cc1 (stereo unspecified) | 58.8% |
| CC(C)(C)[C@H](NC(=O)c1ccc(N)c(Cl)c1)C(=O)N1CCC[C@@H]1C(=O)N[C@H](C#N)CC(=O)O | 160% [at 3.19 µM] |
| Cc1ncc(-c2ccnc(Nc3ccc(S(C)(=O)=O)cc3)n2)n1C(C)C | 6.84% |

----------
Test: Quantitative High-Throughput drug screen in 47 multiple myeloma cell lines against the NCATS MIPE library collection: OPM2_DSMZ cell viability assay (AID 1919872); note: nearly all actives have a fitted effect of over 30% in size; note: potency is the fitted concentration of half-maximal effect
Conditions: OPM2 myeloma viability, CellTiter-Glo ATP luminescence, 48 h; series mostly up to 45.8 µM
Inconclusive results are not listed. The source made the active and inactive calls. Calls follow the shape of the dose curve; as a rule, active = well fitted cell-killing curve with a large enough effect; inconclusive = small, poorly fitted or top-dose-only effect, or effect the other way; inactive = no such curve, though single readings can be large or run the other way.
parameter: Potency

| molecule | parameter | testResult |
| --- | --- | --- |
| CCC(C(=O)O)C1CCC(C)C(C(C)C(O)C(C)C(=O)C(CC)C2OC3(C=CC(O)[C@@]4(CC[C@](C)(C5CC[C@@](O)(CC)C(C)O5)O4)O3)C(C)CC2C)O1 (some centres undefined) | Potency | 1.87 µM (active) |
| CN1CCCN(C(=O)c2cccc(-c3ccc(C=C4C(=O)Nc5ccc(Cl)cc54)o3)c2)CC1 | Potency | 23.5 µM (active) |
| c1ccc2c(Oc3nc(Nc4ccc(N5CCOCC5)cc4)c4ncn(C5CCCCC5)c4n3)cccc2c1 | Potency | inactive |
| O=C1NCCc2[nH]c(-c3ccncc3)cc21 | Potency | 14.8 µM (active) |
| CCN(CC)CCNC(=O)c1c(C)[nH]c(C=C2C(=O)Nc3ccc(F)cc32)c1C | Potency | 6.05 µM (active) |
| CC(=O)N[C@@H]1[C@H](O[C@@H]2c3ccc(c(Cl)c3)Oc3cc4cc(c3O[C@H]3O[C@H](CO)[C@@H](O)[C@H](O)[C@H]3NC(=O)CCCCCCCC(C)C)Oc3ccc(cc3Cl)C[C@H]3NC(=O)[C@H](N)c5ccc(O)c(c5)Oc5cc(O)cc(c5)[C@H](NC3=O)C(=O)N[C@H]4C(=O)N[C@H]3C(=O)N[C@@H]2C(=O)N[C@@H](C(=O)O)c2cc(O)cc(O[C@H]4O[C@H](CO)[C@@H](O)[C@H](O)[C@H]4O)c2-c2cc3ccc2O)O[C@H](CO)[C@@H](O)[C@@H]1O | Potency | inactive |
| O=C(O)CCCCCC(=O)NN=C1CCCC1 | Potency | inactive |
| CN(C)c1ccc(C(=O)NCCCCCCC(=O)NO)cc1 | Potency | 0.935 µM (active) |
| CON=C(C(=O)N[C@@H]1C(=O)N2C(C(=O)O)=C(CSC(=O)c3ccco3)CS[C@H]12)c1csc(N)n1 | Potency | inactive |

----------
Test: qHTS of pediatric cancer cell lines to identify multiple opportunities for drug repurposing: Primary screen for Rh41 cells (AID 1347108); note: nearly all actives have a fitted effect of over 70% in size
Conditions: Rh41 rhabdomyosarcoma viability, CellTiter-Glo luminescence, 48 h; series mostly up to 46 µM
Inconclusive results are not listed. The source made the active and inactive calls. Calls follow the shape of the dose curve; as a rule, active = well fitted cell-killing curve with a large enough effect; inconclusive = small, poorly fitted or top-dose-only effect; inactive = no such curve, though single readings can be large or run the other way.
Possible outcomes: True for active, False for inactive

| chemSmiles | classAssignment |
| --- | --- |
| NC[C@H]1O[C@H](O[C@H]2[C@@H](O)[C@@H](O[C@H]3O[C@H](CO)[C@@H](O)[C@H](N)[C@@H]3O)[C@H](N)C[C@@H]2N)[C@H](N)C[C@H]1O | False |
| CCc1ccc(C(=O)Nc2cc(CN3CCN(C)CC3)cc(C(F)(F)F)c2)cc1C#Cc1cnc2ccnn2c1 | True |
| COc1cc(OC)cc(-c2ccc3ncc4ccc(=O)n(-c5ccc(N6CCNCC6)c(C(F)(F)F)c5)c4c3c2)c1 | True |
| c1ccc(CNc2nc(NCc3ccccc3)c3ccccc3n2)cc1 | True |

----------
Assay: Quantitative High-Throughput drug screen in 47 multiple myeloma cell lines against the NCATS MIPE library collection: JIM1_ECACC cell viability assay (AID 1918964; note: potency is the fitted concentration of half-maximal effect)
Settings: JIM1 myeloma viability, CellTiter-Glo ATP luminescence, 48 h; series mostly up to 45.8 µM
Results filed as inconclusive are left out. Activity calls are given as the source filed them. Calls come from the whole dose curve; as a rule, active = well fitted cell-killing curve with a large enough effect; inconclusive = small, poorly fitted or top-dose-only effect, or effect the other way; inactive = no such curve, though single readings can be large or run the other way.
Reported values of Potency for individual entries
parameter: Potency

| chemSmiles | parameter | testResult |
| --- | --- | --- |
| C[C@]12CC[C@@H]3c4ccc(O)cc4CC[C@H]3[C@H]1CC[C@H]2O | Potency | 5900 nM (active) |
| CN(C)c1ccc(C(=O)NCCCCCCC(=O)NO)cc1 | Potency | 93.5 nM (active) |
| Cc1ncc(-c2ccnc(Nc3ccc(S(C)(=O)=O)cc3)n2)n1C(C)C | Potency | 2350 nM (active) |

----------
Assay: P-glycoprotein substrates identified in KB-8-5-11 adenocarcinoma cell line, qHTS therapeutic library screen (AID 1346987); note: nearly all actives have a fitted effect of over 65% in size
Conditions: KB-8-5-11 (P-gp overexpressing) viability, CellTiter-Glo, 72 h; series mostly up to 44.5 µM
Records with an inconclusive call do not appear. Calls of active or inactive are those of the source. Calls come from the whole dose curve; as a rule, active = well fitted inhibition curve with a large enough effect; inconclusive = small, poorly fitted or top-dose-only effect; inactive = flat fitted curve, though single readings scatter.
Possible outcomes: active, inactive

| compound | classAssignment |
| --- | --- |
| OC[C@H]1OC(O)C[C@@H](O)[C@H]1O (stereo not given in full) | inactive |
| O=c1c(O)c(-c2ccc(O)c(O)c2)oc2cc(O)ccc12 | active |
| CC(=O)O[C@H]1C[C@@H]2CC[C@H]3[C@H]4C[C@H]([N+]5(C)CCCCC5)[C@@H](OC(C)=O)[C@@]4(C)CC[C@@H]3[C@@]2(C)C[C@H]1N1CCCCC1 | inactive |
| CC(=O)O[C@]1(C(C)=O)CC[C@H]2[C@@H]3C=C(C)C4=CC(=O)CC[C@]4(C)[C@@H]3CC[C@@]21C | inactive |
| CCS(=O)(=O)Nc1ccc2[nH]c(O)c(C(=Nc3ccc(CN4CCCCC4)cc3)c3ccccc3)c2c1 | inactive |
| N#CC(=C(N)Sc1ccc(N)cc1)c1ccccc1C(F)(F)F | inactive |
| NC(=O)N1CCC(CC(=O)N2CCC([C@H]3c4ncc(Br)cc4CCc4cc(Cl)cc(Br)c43)CC2)CC1 | active |
| CCCCCCCCCCCC(CC1OC(=O)C1CCCCCC)OC(=O)C(CC(C)C)NC=O (stereo not given) | inactive |
| CS(=O)(=O)N1CCc2c(-c3cnc(N)nc3)nc(N3CCOCC3)nc21 | active |
| C[C@H]1[C@@H](OC(=O)CCC(=O)O)O[C@@H]2O[C@@]3(C)CC[C@@H]4[C@H](C)CC[C@@H]1[C@@]24OO3 | active |
| CCN(CC)CCNC(=O)c1c(C)[nH]c(C=C2C(=O)Nc3ccc(F)cc32)c1C | active |
| COc1ccc(Nc2cc(-c3cnc(N)nc3)nc(N3CCOCC3)n2)cn1 | active |
| CC1(C)CC(O)CC(C)(C)N1[O] | inactive |
| COC(=O)[C@@H]1[C@H]2C[C@@H]3c4[nH]c5ccccc5c4CCN3C[C@@H]2CC[C@@H]1O | inactive |
| C#CCC(Cc1cnc2nc(N)nc(N)c2n1)c1ccc(C(=O)N[C@@H](CCC(=O)O)C(=O)O)cc1 (stereo not given in full) | active |
| NC(=O)Nc1cc(-c2ccc(CN3CCOCC3)cc2)sc1C(N)=O | active |
| O=C1NCCc2[nH]c(-c3ccncc3)cc21 | active |
| CN(CC(=O)N(Cc1ccc(C2CCCCC2)cc1)c1ccc(C(=O)O)c(O)c1)S(=O)(=O)c1c(F)c(F)c(F)c(F)c1F | inactive |
| COc1ccc(C[C@@H](C)[C@@H](C)Cc2ccc(OC)c(OC)c2)cc1OC | active |
| CCCc1nc(C(C)(C)O)c(C(=O)O)n1Cc1ccc(-c2ccccc2-c2nn[nH]n2)cc1 | inactive |
| COc1ccc(C(C)=O)c(O)c1 | inactive |
| COc1ccnc2[nH]cc(C(=O)C(=O)N3CCN(C(=O)c4ccccc4)C[C@@H]3C)c12 | inactive |
| CC(Oc1ccc(O)cc1)(P(=O)(O)O)P(=O)(O)O | inactive |
| C[C@H]1COc2c(N3CCN(C)CC3)c(F)cc3c(=O)c(C(=O)O)cn1c23 | inactive |
| CC(C=CC(=O)NO)=C[C@@H](C)C(=O)c1ccc(N(C)C)cc1 | active |
